Below, each entry is listed alongside its reported EC50.
system: HCV (Ib) RNA replication; test: Cell-based luciferase reporter HCV (1b) RNA replication assay (replicon cell lines Huh-7 5.2 and ET); set-up: species or system Hepatitis C virus; settings: Hepatitis C virus, Huh-7, 96 h, HCV 1b genotype replicon, luciferase readout, 4 days incubation; read-out: EC50_1b

Consider the worked cases shown below.
| chemical-structure | experimental-result |
| --- | --- |
| COC(=O)N[C@H](C(=O)N1CCOC[C@H]1c1nc2cc(-c3ccc(-c4ccc5nc([C@@H]6COCCN6C(=O)[C@@H](NC(=O)OC)C(C)C)[nH]c5c4)cc3)ccc2[nH]1)C(C)C | ≤ 5 nM |
| C[C@@H](C(=O)N1CCC[C@H]1c1nc2cc(C#Cc3ccc4[nH]c([C@@H]5CCCN5C(=O)[C@H](C)N5CCCC5=O)nc4c3)ccc2[nH]1)N1CCCC1=O | ≤ 5 nM |
| COC(=O)N[C@H](C(=O)N1CCC[C@H]1c1nc2cc(-c3nc(C)c(-c4ccc5[nH]c([C@@H]6CCCN6C(=O)[C@@H](NC(=O)OC)C(C)C)nc5c4)s3)ccc2[nH]1)C(C)C | ≤ 5 nM |

Value lookup for EC50; key = `C[C@H]1C[C@@H](c2nc3ccc(-c4ccc(-c5ccc6nc([C@@H]7C[C@H](C)CN7C(=O)OC(C)(C)C)n(C)c6c5)cc4)cc3[nH]2)N(C(=O)OC(C)(C)C)C1`
5 to 5000 nM

Now give it for `CC(C)[C@@H](NC(=O)O[C@H]1CCOC1)C(=O)N1CCC[C@H]1c1nc2cc(C#Cc3ccc4[nH]c([C@@H]5CCCN5C(=O)[C@H](NC(=O)O[C@H]5CCOC5)C(C)C)nc4c3)ccc2[nH]1` too.
5 to 5000 nM

All figures here come from patent US8354419B2.
